Measured log10(IC50) by item
- target system: LEDGF-Integrase interaction (Human immunodeficiency virus type 1 group M subtype B)
- Construct: His6-tagged integrase (78 nM final concentration); purchased Prof; Zeger Debyser, Katholieke Universiteit Leuven (supplied by an academic laboratory, not a commercial vendor)
- method description: HTRF Interaction assay (S9118)
- Design: species or system HIV
- condition notes: His6-tagged integrase and MBP-LEDGF integrase binding domain; table values
Log scale reminder: IC50 in µM, then log10 taken.

Completed entries (count: 3):
• Cc1nc2sc3c(c2c(-c2ccc4scnc4c2)c1C(OC(C)(C)C)C(=O)O)CCCC3 (centres unmarked) [Example 4] = 0.54
• Cc1nc2sc3c(c2c(-c2cccc(-c4nccn4C)c2)c1C(OC(C)(C)C)C(=O)O)CCCC3 (centres unmarked) [Example 19] = 1.67
• Cc1nc2sc3c(c2c(-c2cccc4c2cnn4C)c1C(OC(C)(C)C)C(=O)O)CCCC3 (centres unmarked) [Example 24] = 0.88

Endpoint output: log10(IC50) of COc1cc(-c2c(C(OC(C)(C)C)C(=O)O)c(C)nc3sc4c(c23)CCCC4)ccn1 (centres unmarked) [Example 14] . Value?
1.45

---

- target system: LEDGF-Integrase interaction (Human immunodeficiency virus type 1 group M subtype B, UniProt P12497)
- Construct: His6-tagged integrase (78 nM final concentration); purchased Prof; Zeger Debyser, Katholieke Universiteit Leuven (supplied by an academic laboratory, not a commercial vendor)
- method description: HTRF Interaction assay (S9118)
- Set-up: species or system HIV
- condition notes: His6-tagged integrase and MBP-LEDGF integrase binding domain; table values
Measured pIC50 by item
Expect pIC50 as a plain number equal to -log10 of the molar concentration.

Completed entries (count: 2):
* Cc1nc2sc3c(c2c(-c2cccc(CO)c2)c1C(OC(C)(C)C)C(=O)O)CCCC3 (stereo not shown) [Example 27] | 4.24
* COc1ccc(-c2c(C(OC(C)(C)C)C(=O)O)c(C)nc3sc4c(c23)CCCC4)cn1 (stereo not shown) [Example 7] | 5.03

Now examine the next entry.
Endpoint output: pIC50 of Cc1nc2sc3c(c2c(-c2ccc4cn[nH]c4c2)c1C(OC(C)(C)C)C(=O)O)CCCC3 (stereo not shown) [Example 6] . Value?
5.58

---

- System: HIV-1 virus (NL4.3 strain)
- method description: MT-2 based antiviral assay (S8737E)
- Format: cell-based
- condition notes: read-out: Antiviral Activity (S8737E); HIV-1 NL4.3 replication in MT2 cells, 3 days, β-Gal readout in JC53BL cells
quantity name: IC50 (µM)
Quick reminder: number only, in µM, skip the unit.

Endpoint output: IC50 of Cc1nc2sc3c(c2c(-c2ccc4cnn(C)c4c2)c1C(OC(C)(C)C)C(=O)O)CCCC3 (stereo not shown) . Value?
0.814

---

- target system: LEDGF-Integrase interaction (Human immunodeficiency virus type 1 group M subtype B)
- Construct: His6-tagged integrase (78 nM final concentration); purchased Prof; Zeger Debyser, Katholieke Universiteit Leuven (supplied by an academic laboratory, not a commercial vendor)
- method description: HTRF Interaction assay (S9118)
- Design: species or system HIV
- condition notes: His6-tagged integrase and MBP-LEDGF integrase binding domain
quantity name: pIC50
Expect pIC50 as a plain number equal to -log10 of the molar concentration.

Completed entries (count: 5):
• Cc1ccc(-c2c([C@@H](OC(C)(C)C)C(=O)O)c(C)nc3sc4c(c23)CCCC4)c(O)c1 (single isomer, unassigned) [48, first eluting enantiomer] = 5.39
• Cc1nc2sc3c(c2c(-c2ccc(Br)cc2)c1[C@H](OC(C)(C)C)C(=O)O)CCCC3 = 5.94
• Cc1ccc(-c2c(C(OC(C)(C)C)C(=O)O)c(C)nc3sc4c(c23)CCOC4)cc1 (stereo not shown) = 5.56
• Cc1ccc(-c2c(C(OC(C)(C)C)C(=O)O)c(C)nc3sc4c(c23)CCCC4)c(O)c1 (single isomer, unassigned) [48, second eluting enantiomer] = 6.24
• Cc1nc2sc3c(c2c(-c2ccc(C(F)F)cc2)c1[C@H](OC(C)(C)C)C(=O)O)CCCC3 = 4.96

Endpoint output: pIC50 of Cc1nc2sc3c(c2c(-c2ccc(C(F)(F)F)cc2)c1[C@H](OC(C)(C)C)C(=O)O)CCCC3 . Value?
5.82

How about this molecule: Cc1nc2sc3c(c2c(-c2ccc(Cl)cc2O)c1[C@H](OC(C)(C)C)C(=O)O)CCCC3 (single isomer, unassigned) [Atropisomer 46A]
6.25

How about this molecule: Cc1nc2sc3c(c2c(-c2ccc(Cl)cc2)c1[C@H](OC(C)(C)C)C(=O)O)CCCC3
6.24

How about this molecule: Cc1ccc(-c2c([C@H](OC(C)(C)C)C(=O)O)c(C)nc3sc4c(c23)CCCC4)c(F)c1
6.18

How about this molecule: Cc1nc2sc3c(c2c(-c2ccc(Cl)cc2F)c1[C@H](OC(C)(C)C)C(=O)O)CCCC3
6.25
